Source of measurements: patent US20230322924A1

# maps each entry to its koff
- target.desc: T1, TMEW1 (TMEFF2-FL-ECD-His-Avitag) (human, UniProt Q9UIK5 41-320)
- T1 construct: Human TMEFF2 ECD with C-terminal G3S, 6xHis tag and Avi-tag, all in the entry; also called TMEFF2 ECD
- T1 sequence: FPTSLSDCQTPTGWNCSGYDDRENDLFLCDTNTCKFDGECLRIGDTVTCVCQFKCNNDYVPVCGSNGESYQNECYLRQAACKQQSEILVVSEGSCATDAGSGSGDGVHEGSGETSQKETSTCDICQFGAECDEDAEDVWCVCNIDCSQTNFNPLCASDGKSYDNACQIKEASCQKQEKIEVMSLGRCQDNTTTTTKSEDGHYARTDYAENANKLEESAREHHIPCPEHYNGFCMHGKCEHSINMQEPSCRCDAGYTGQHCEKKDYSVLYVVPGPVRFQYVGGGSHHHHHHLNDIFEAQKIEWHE
- experiment.summary: ProteOn SPR, mAb captured on anti-human Fc, TMEFF2 as analyte
reported.endpoint: koff (s⁻¹)

# binder, result.value
data = [
    ("TMEB675 (antibody, human IgG4 S228P, kappa, F234A L235A, V domains shown, IgG4 PAA anti-TMEFF2; also called TMEH411/TMEL127) VH: EVQLLESGGGLVQRGGSLRPSCAASGFTFSSYSMSWVRQAPGKGLEWVSVISGSGGFTDYADSVKGRFTISRDNSKNTLYLHMNSLRAEDTAVYYCARMPLNSPHDYWGQGTLVTVSS VL: AIQMTQSPSSLSASVGDRVTITCRASQGIRNDLGWYQQKPGKAPKLLIYAASSLQSGVPSRFSGSGSGTDFTLTISSLQPEDFATYYCLQDYNYALTFGGGTKVEIKR", 0.000153),
    ("TMEB570 (antibody, human IgG4 S228P, kappa, F234A L235A, V domains shown, IgG4 PAA anti-TMEFF2; also called TMEH396/TMEL112) VH: QVQLVQSGAEVKKPGSSVKVSCKASGGTFSSYYISWVRQAPGQGLEWMGGIIPISGRANYAQKFQGRVTITADESTSTAYMELSSLRSEDTAVYYCARDGYSSGRSTTYAFDYWGQGTLVTVSS VL: EIVLTQSPGTLSLSPGERATLSCRASQSVSTYYLAWYQQKPGQAPRLLIYGASYRATGIPDRFSGSGSGTDFTLTISRLEPEDFAVYYCQQYGHSPITFGQGTKVEIKR", "5.13e-05"),
    ("TMEB565 (antibody, human IgG4 S228P, kappa, F234A L235A, V domains shown, IgG4 PAA anti-TMEFF2; also called TMEH396/TMEL111) VH: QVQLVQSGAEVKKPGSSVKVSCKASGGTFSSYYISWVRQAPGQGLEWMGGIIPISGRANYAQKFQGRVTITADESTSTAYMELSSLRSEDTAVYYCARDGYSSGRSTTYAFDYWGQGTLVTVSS VL: EIVLTQSPGTLSLSPGERATLSCRASQSVATYYLAWYQQKPGQAPRLLIYGASSRATGIPDRFSGSGSGTDFTLTISRLEPEDFAVYYCQQYGYNPITFGQGTKVEIKR", "9.13e-06"),
    ("TMEB674 (antibody, human IgG4 S228P, kappa, F234A L235A, V domains shown, IgG4 PAA anti-TMEFF2; also called TMEH410/TMEL126) VH: VQLLESGGGLVQPPGGSLRLSCAASGFTFSSYSMSWVRQAPGKGLEWVSVISGGGSFTSYADSVKGRFTISRDNSNNTLYLQMSSLRAEDTAFYYCARMPLNSPHDCWGQGTLVTVSS VL: AIQMTQSPSSLSASVGDRVTITCRASQGIRNDLGWYQQKPGKAPKLLIYAASSLQSGVPSRFSGSGSGTDFTLTISSLQPEDFATYYCLQDYNYSLTFGGGTKVEIRR", 0.000162),
]
